Hey, just so you know, these numbers are from paper PMC7031696.

Listed here: items and their measured Log2(fold change) inosine.
- Test system: 3D7-MR4 trophozoite parasite-infected RBCs
- Experiment Notes: Metabolomic profiling (hydrophilic metabolite changes, UHPLC-MS)
- Format: cell-based, Plasmodium falciparum
- Test Conditions: metabolite inosine

[
  {
    "Molecule": "COCCNCC(O)Cn1c2ccc(Cl)cc2c2cc(Cl)ccc21 (centres unmarked) [MMV019017]",
    "Log2(fold change) inosine": 0.3793
  },
  {
    "Molecule": "CCCOCc1cc(CN2CCN(c3cccc(Cl)c3)CC2)c(O)c2ncccc12 [MMV000787]",
    "Log2(fold change) inosine": -0.0358
  },
  {
    "Molecule": "COc1ccc(C2c3ccc4ccccc4c3Oc3ncn(CCCN(C)C)c(=N)c32)cc1 (centres unmarked) [MMV667491]",
    "Log2(fold change) inosine": 0.0977
  },
  {
    "Molecule": "CNc1nc(NCCCN(C)C)c2sc(-c3cccc(C(F)(F)F)c3)cc2n1 [MMV668311]",
    "Log2(fold change) inosine": 0.0666
  },
  {
    "Molecule": "C[C@H]1Cc2c([nH]c3cc(Cl)c(F)cc23)[C@@]2(N1)C(=O)Nc1ccc(Cl)cc12 [KAE609, reference compound]",
    "Log2(fold change) inosine": 0.1600
  },
  {
    "Molecule": "CCCCN(CCCC)CC(O)c1cc(Cl)cc2c1-c1ccc(Cl)cc1/C2=C/c1ccc(Cl)cc1 (centres unmarked) [Lumefantrine, reference compound]",
    "Log2(fold change) inosine": -0.7307
  },
  {
    "Molecule": "CCOC(=O)C1=C(C)NC2=C(C(=O)CC(c3ccc(OC)c(OC)c3)C2)C1c1ccccc1Cl (centres unmarked) [GNF-Pf-5660, reference compound]",
    "Log2(fold change) inosine": -0.1669
  },
  {
    "Molecule": "CC(C)(C)c1ccc2c(c1)CN(Cc1ccc(Cl)cc1)CO2 [MMV000442]",
    "Log2(fold change) inosine": -0.6031
  }
]

---

- Test system: 3D7-MR4 trophozoite parasite-infected RBCs
- Experiment Notes: Metabolomic profiling (hydrophilic metabolite changes, UHPLC-MS)
- Format: cell-based, Plasmodium falciparum
- Test Conditions: metabolite NAD+
Endpoint: Log2(fold change) NAD+

[
  {
    "Molecule": "CCCCN(CCCC)CC(O)c1cc(Cl)cc2c1-c1ccc(Cl)cc1/C2=C/c1ccc(Cl)cc1 (centres unmarked) [Lumefantrine, reference compound]",
    "Endpoint": "Log2(fold change) NAD+",
    "Assay Result": -0.0402
  },
  {
    "Molecule": "CN(C)Cc1ccc(-c2cc3c(-c4ccc(CN(C)C)cc4)ccnc3[nH]2)cc1.O=C(O)C(F)(F)F",
    "Endpoint": "Log2(fold change) NAD+",
    "Assay Result": -0.0358
  },
  {
    "Molecule": "Cc1ccc(Oc2ncccc2C(=O)Nc2cccc3cccnc23)c(C)c1",
    "Endpoint": "Log2(fold change) NAD+",
    "Assay Result": -0.2290
  },
  {
    "Molecule": "COc1cncc(-c2cncc(N3CCN(c4ccncc4)CC3)n2)c1",
    "Endpoint": "Log2(fold change) NAD+",
    "Assay Result": 0.0189
  },
  {
    "Molecule": "CCCOCc1cc(CN2CCN(c3cccc(Cl)c3)CC2)c(O)c2ncccc12",
    "Endpoint": "Log2(fold change) NAD+",
    "Assay Result": -0.4850
  },
  {
    "Molecule": "FC(F)(F)c1ccc(Nc2cc3[nH]c(-c4cccc(C(F)(F)F)c4)nc3cn2)nc1",
    "Endpoint": "Log2(fold change) NAD+",
    "Assay Result": -0.0175
  },
  {
    "Molecule": "COc1ccc(C2c3ccc4ccccc4c3Oc3ncn(CCCN(C)C)c(=N)c32)cc1 (centres unmarked)",
    "Endpoint": "Log2(fold change) NAD+",
    "Assay Result": -0.1377
  },
  {
    "Molecule": "CN(C)c1ccc2nc3ccc(=[N+](C)C)cc-3sc2c1 [Methylene blue, reference compound]",
    "Endpoint": "Log2(fold change) NAD+",
    "Assay Result": -0.1775
  }
]
